- studyTarget: High affinity nerve growth factor receptor (Homo sapiens) (UniProt P04629)
- Sequence (P04629 33-796 limits assumed): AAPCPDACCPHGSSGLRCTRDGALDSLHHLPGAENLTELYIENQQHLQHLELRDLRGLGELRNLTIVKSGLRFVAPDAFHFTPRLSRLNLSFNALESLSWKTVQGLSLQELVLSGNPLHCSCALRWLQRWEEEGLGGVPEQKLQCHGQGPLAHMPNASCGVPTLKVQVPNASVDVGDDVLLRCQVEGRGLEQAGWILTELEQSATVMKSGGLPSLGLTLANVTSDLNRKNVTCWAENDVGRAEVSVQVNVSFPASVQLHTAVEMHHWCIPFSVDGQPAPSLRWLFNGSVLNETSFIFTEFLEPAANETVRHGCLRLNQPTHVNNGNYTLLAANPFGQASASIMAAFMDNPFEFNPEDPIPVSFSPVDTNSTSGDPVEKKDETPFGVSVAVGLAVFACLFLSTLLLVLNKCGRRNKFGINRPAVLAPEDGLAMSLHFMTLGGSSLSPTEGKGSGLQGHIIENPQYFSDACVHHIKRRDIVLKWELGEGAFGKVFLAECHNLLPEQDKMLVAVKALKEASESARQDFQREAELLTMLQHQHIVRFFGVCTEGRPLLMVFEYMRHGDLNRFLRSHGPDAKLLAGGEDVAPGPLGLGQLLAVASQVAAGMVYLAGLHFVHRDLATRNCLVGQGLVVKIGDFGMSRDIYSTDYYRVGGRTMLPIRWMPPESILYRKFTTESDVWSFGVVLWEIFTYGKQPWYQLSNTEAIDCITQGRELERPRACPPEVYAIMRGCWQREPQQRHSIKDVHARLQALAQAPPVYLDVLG
- assayConditions: at 1 µM
readoutName: residual activity (%)
Provide only the numeric value, understood in %.

Example cases with answers are listed next.
[
  {
    "chemicalSmiles": "CN(C)S(=O)(=O)c1ccc2c(c1)/C(=C/c1cc3c([nH]1)CCCC3)C(=O)N2",
    "residual activity, %": -2
  },
  {
    "chemicalSmiles": "CCCC(=O)Oc1ccc2[nH]c(C(=O)c3cc4ccccc4[nH]3)cc2c1",
    "residual activity, %": 87
  },
  {
    "chemicalSmiles": "CC(C)c1nn(-c2c(Cl)cccc2Cl)c2nc(Cc3ccc(OCCO)cc3)[nH]c(=O)c12",
    "residual activity, %": 87
  },
  {
    "chemicalSmiles": "COc1ccc2c(c1)c(C1=C(c3c[nH]c4ccccc34)C(=O)NC1=O)cn2CCCN(C)C",
    "residual activity, %": 72
  },
  {
    "chemicalSmiles": "COc1cc2nccc(Oc3ccc(NC(=O)Nc4cc(C)on4)c(Cl)c3)c2cc1OC",
    "residual activity, %": 2
  },
  {
    "chemicalSmiles": "N#Cc1c(NC(=O)c2cccc3ccccc23)sc2c1CCCC2",
    "residual activity, %": 81
  },
  {
    "chemicalSmiles": "O=C(Nc1nc2ccccc2n1CCN1CCOCC1)c1cccc([N+](=O)[O-])c1",
    "residual activity, %": 20
  },
  {
    "chemicalSmiles": "CC(C)(C)n1nc(Cc2cccc3ccccc23)c2c(N)ncnc21",
    "residual activity, %": 80
  },
  {
    "chemicalSmiles": "Nc1ncnc2c1c(-c1ccc(Oc3ccccc3)cc1)cn2C1CCCC1",
    "residual activity, %": 26
  },
  {
    "chemicalSmiles": "Cn1sc(=O)n(Cc2ccccc2)c1=O",
    "residual activity, %": 81
  }
]

With those in mind, consider the next compound.
Inquiry: Which residual activity value belongs to CCCCc1c(-c2ccc(O)cc2)[nH]c2nccnc12 ?
Reply text: 61

---

- studyTarget: Aurora kinase B (Homo sapiens) (UniProt Q96GD4)
- Sequence (Q96GD4 whole entry): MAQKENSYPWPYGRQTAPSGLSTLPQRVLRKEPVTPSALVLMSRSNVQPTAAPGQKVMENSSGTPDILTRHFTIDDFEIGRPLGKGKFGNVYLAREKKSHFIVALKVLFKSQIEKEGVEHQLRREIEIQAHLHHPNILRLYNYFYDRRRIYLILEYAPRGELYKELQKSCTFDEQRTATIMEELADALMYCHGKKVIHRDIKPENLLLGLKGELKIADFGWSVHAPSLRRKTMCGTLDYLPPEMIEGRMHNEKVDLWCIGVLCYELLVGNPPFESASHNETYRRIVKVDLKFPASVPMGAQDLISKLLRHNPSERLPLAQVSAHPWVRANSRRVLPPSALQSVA
- assayConditions: at 1 µM
Catalogue of residual activity readings, one per entry.
Just the number in %, nothing appended.

Recorded results for 3 compounds are shown here.
[
  {
    "compound": "COc1ccc2c(c1)c(C1=C(c3c[nH]c4ccccc34)C(=O)NC1=O)cn2CCCN(C)C",
    "residual activity / %": 39
  },
  {
    "compound": "O=C1NC(=O)c2c1c1c3ccccc3[nH]c1n1cncc21",
    "residual activity / %": 3
  },
  {
    "compound": "COc1cc2c(cc1OC)-c1n[nH]c(Nc3cccc(F)c3)c1C2",
    "residual activity / %": 43
  }
]

Inquiry: Would you mind telling me what residual activity value was observed for CSc1nc(-c2ccc(F)cc2)c(-c2ccnc(NC(C)c3ccccc3)c2)[nH]1 (configuration not stated) ?
Reply text: 46

Inquiry: Recorded residual activity of O=C1Cc2c([nH]c3ccc([N+](=O)[O-])cc23)-c2ccccc2N1 , please.
Reply text: 48

Inquiry: Item O=C(CCCc1ccc(-c2ccccc2F)cc1)Nc1ccc(O)cc1 has what recorded residual activity?
Reply text: 107

Inquiry: What does the record list as residual activity for CC(C)c1nn(-c2c(Cl)cccc2Cl)c2nc(Cc3ccc(OCCO)cc3)[nH]c(=O)c12 ?
Reply text: 69

Inquiry: Give the measured residual activity of O=C1NC(=O)C(c2c[nH]c3ccccc23)=C1c1c[nH]c2ccccc12 .
Reply text: 76

Inquiry: Would you mind telling me what residual activity value was observed for O=C1Cc2c([nH]c3ccc(Br)cc23)-c2ccccc2N1 ?
Reply text: 69
